Values from PubChem BioAssay (EPA / NIEHS)

Molecular target: Transcription factor Sp1 (Homo sapiens)
Assay: ATG_Sp1_CIS: Attagene CIS-FACTORIAL HepG2 Assay for human Specificity Protein 1 (Sp1) (AID 2282961)
Details: HepG2 Sp1 cis-reporter transcription, actives raise or lower the signal
Active and inactive are the calls of the source. The calls were made as follows: active = hit-call score of the fitted dose curve at least 0.9, where 1 is the maximum; inactive = score below 0.9.
Classes used: True (active), False (inactive)

INSERT INTO results (compound, assigned_class) VALUES
  ('Clc1ccc(C2(Cn3cncn3)CC(Br)CO2)c(Cl)c1 (configuration not stated)', 'False'),
  ('O=S(=O)(c1ccc(Cl)cc1)c1ccc(Cl)cc1', 'False'),
  ('CN(CCCC(=O)c1cccnc1)N=O', 'False'),
  ('COc1ccc(C=O)cc1', 'False'),
  ('CC1(C)CCC(Cc2ccc(Cl)cc2)C1(O)Cn1cncn1 (configuration not stated)', 'False'),
  ('CCN1CCC2(CC1)COc1cc3c(cc12)N(C(=O)c1ccc(-c2ccc(-c4nnc(C)o4)cc2C)cc1)CC3', 'False'),
  ('OCC(O)CCl (configuration not stated)', 'False'),
  ('O=CC=O', 'False'),
  ('ClCC(Cl)CCl', 'False'),
  ('CC(C)(C)c1cc(O)ccc1O', 'False'),
  ('COP(=S)(OC)Oc1c(Cl)cc(C)cc1Cl', 'False'),
  ('COC(=O)Cc1ccccc1', 'False'),
  ('BrCCBr', 'False'),
  ('CCOC(=O)CP(=O)(OCC)OCC', 'False'),
  ('C[C@]12CCC(=O)C[C@@H]1CC[C@@H]1[C@@H]2CC[C@]2(C)[C@@H](O)CC[C@@H]12', 'False'),
  ('C=CC#N', 'False'),
  ('CCOP(=S)(OCC)SCSP(=S)(OCC)OCC', 'False'),
  ('CC(C)c1ccc(CO)cc1', 'False'),
  ('O=C1CCCN1', 'False'),
  ('COc1cccc(C=O)c1', 'False'),
  ('O=[N+]([O-])c1c(Cl)c(Cl)cc(Cl)c1Cl', 'False'),
  ('N#CN=C(N)N', 'False'),
  ('CCCCP(CCCC)CCCC', 'False'),
  ('CN(C)N=O', 'False'),
  ('O=C(Cc1ccccc1)c1ccccc1', 'False'),
  ('COP(=O)(OC)OC', 'False'),
  ('O=C(Cl)c1ccc(Cl)cc1', 'False'),
  ('CC1(C)Cc2cccc(O)c2O1', 'False'),
  ('COc1cc(OC)nc(NC(=O)NS(=O)(=O)c2ncccc2C(=O)N(C)C)n1', 'False'),
  ('CC(=[OH+])/C=C(/C)[O-].CC(=[OH+])/C=C(/C)[O-].CC(=[OH+])/C=C(/C)[O-].[Fe]', 'False'),
  ('O=C(CCl)CCl', 'True'),
  ('CC(C)c1cccc(C(C)C)c1O', 'False'),
  ('Cc1cc(=O)[nH]o1', 'False'),
  ('O=Cc1cccc(Oc2ccccc2)c1', 'False'),
  ('CCOP(OCC)OCC', 'False'),
  ('O=C1C(Cl)=C(Cl)C(=O)c2ccccc21', 'False'),
  ('Oc1cccc2cccnc12', 'False'),
  ('Cl/C=C\C[N+]12CN3CN(CN(C3)C1)C2', 'False'),
  ('C1CCC(NC2CCCCC2)CC1', 'False'),
  ('CC12CC1(C)C(=O)N(c1cc(Cl)cc(Cl)c1)C2=O (configuration not stated)', 'False'),
  ('Cl/C=C/Cl', 'False'),
  ('COP(=S)(OC)Oc1cc(Cl)c(Cl)cc1Cl', 'False'),
  ('Nc1cccc(Cl)c1', 'False'),
  ('O=C(O)Cc1ccccc1', 'False'),
  ('O=C(O)C(Cl)(Cl)Cl', 'False'),
  ('CNC(=O)O/N=C/C(C)(C)S(C)=O (configuration not stated)', 'False'),
  ('C(=NC1CCCCC1)=NC1CCCCC1', 'False'),
  ('CCCCOCCOC(C)=O', 'False'),
  ('CN(C)P(=O)(N(C)C)N(C)C', 'False'),
  ('C[C@H]1O[C@@H](O[C@H]2[C@@H](O)C[C@H](O[C@H]3[C@@H](O)C[C@H](O[C@H]4CC[C@@]5(C)[C@H](CC[C@@H]6[C@@H]5CC[C@]5(C)[C@@H](C7=CC(=O)OC7)CC[C@]65O)C4)O[C@@H]3C)O[C@@H]2C)C[C@H](O)[C@@H]1O', 'True'),
  ('O=C(Nc1ccc2[nH]ccc2c1)c1cc2cc(F)ccc2n1Cc1cccc(F)c1', 'True'),
  ('C=C(C)C#N', 'False');
